experiment: Cytotoxicity in CYP2E1 transgenic cells; conditions: human

- mol smiles: "C=Cc1ccccc1"
  unit string: "%"
  viability at 24 h, 100 µM: 80
